# MEASUREMENT_TARGET: T1, biotinylated Fc-fused monkey CD137 (monkey, biotin on the AviTag)
# T1 construct: also called cyCD137-Fc-BAP
# T1 sequence (chain, as listed by the source limits assumed): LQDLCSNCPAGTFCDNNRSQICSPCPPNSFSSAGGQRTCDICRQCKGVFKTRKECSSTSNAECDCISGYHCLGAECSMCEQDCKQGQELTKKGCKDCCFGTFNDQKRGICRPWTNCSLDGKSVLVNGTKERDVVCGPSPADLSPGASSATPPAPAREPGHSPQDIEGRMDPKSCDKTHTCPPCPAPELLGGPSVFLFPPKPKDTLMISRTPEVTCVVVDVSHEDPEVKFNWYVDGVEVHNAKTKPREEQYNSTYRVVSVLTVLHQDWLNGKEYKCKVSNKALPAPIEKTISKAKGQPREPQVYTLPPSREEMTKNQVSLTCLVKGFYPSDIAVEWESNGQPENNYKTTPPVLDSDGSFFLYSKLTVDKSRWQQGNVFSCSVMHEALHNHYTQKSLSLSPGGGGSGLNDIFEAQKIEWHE
# ASSAY_TEXT: ELISA, 1 mM ADP, 0.156 ug/mL
# Set-up: reference not given here
# Procedure: The obtained antibodies were evaluated for binding to monkey CD137 by ELISA. The cyCD137-Fc-BAP prepared in Reference Example 1 was immobilized on Streptawell microtiter plates. […] Color development was measured by absorbance at 600 nm. Samples with a concentration-dependent increase in the absorbance ratio can be said to be bound to monkey CD137.
ENDPOINT_NAME: absorbance ratio
The answer should be a number; do not append a unit.

What does the data say about its absorbance ratio? Entry: dBBAT053-P253 (antibody, human IgG1, lambda, V domains shown) VH: EVQLVESGGDLVKPGGGLRLSCAASGFTFSTFTMNWVRQAPGKGLEWVSSISSRSNYIYYADSVKGRFTISRDNAKNSLYLQMNSLRAEDTAVYYCARFGLKNEMNWVFDYWGQGTLVTVSS VL: QSALTQPPSASGSPGQTVTISCTGTSSDVGFYNYVSWYQQHPGKAPKLMIYEGSKKPSGVPDRFSGSKSGNTASLTVSGLQAEDEADYFCSVYSYIYYVLFGGGTKLTVLG
1

Which absorbance ratio value is on record for dBBAT112-P253 (antibody, human IgG1, lambda, V domains shown) VH: EVQLVESGGDLVKPGGGLRLSCAASGFTFSTYTMNWVRQAPGKGLEWVSSISSRSNYKFYADSVKGRFTISRDNAKNSLYLQMNSLRAEDTAVYYCARFGVKNNMNWVFDYWGQGTLVTVSS VL: QSALTQPPSASGSPGQTVTISCTGTSSDVGFYNYVSWYQQHPGKAPKLMIYEVSKRPSGVPDRFSGSKSGNTASLTVSGLQAEDEADYFCSSYEYIESVLFGGGTKLTVLG ?
1

So what does the record say about absorbance ratio for dBBAT037-P253 (antibody, human IgG1, lambda, V domains shown) VH: EVQLVESGGDLVKPGGGLRLSCAASGFTFSGYTMNWVRQAPGKGLEWVSSISSRSNYIDYADSVKGRFTISRDNAKNSLYLQMNSLRAEDTAVYYCARFGLKNSLNWVFDYWGQGTLVTVSS VL: QSALTQPPSASGSPGQTVTISCTGTSTDVGFYNYVSWYQQHPGKAPKLMIYETSKRPSGVPDRFSGSKSGNTASLTVSGLQAEDEADYFCSSYSGASILLFGGGTKLTVLG ?
1.9

Given dBBAT119-P253 (antibody, human IgG1, lambda, V domains shown, also called dBBAT119H-P253/dBBAT119L-LamLib) VH: EVQLVESGGDLVKPGGGLRLSCAASGFTFSTFTMNWVRQAPGKGLEWVSSISSRSNYKSYADSVKGRFTISRDNAKNSLYLQMNSLRAEDTAVYYCARYGAKNFMNWVFDYWGQGTLVTVSS VL: QSALTQPPSASGSPGQTVTISCTGTSTDVGFYNYVSWYQQHPGKAPKLMIYYTSKRPSGVPDRFSGSKSGNTASLTVSGLQAEDEADYFCSSYRYDHQVSFGGGTKLTVLG , state its recorded absorbance ratio.
47.7
